- TESTED_SYSTEM: T1, human PCSK9 (proprotein convertase subtilisin kexin type 9) (human, UniProt Q8NBP7 31-692)
- T1 construct: immobilized directly (ProteOn), biotinylated (Octet) or in solution, according to the assay; also called hPCSK9; PCSK9-AF647 (labelled form)
- T1 sequence (Q8NBP7 31-692 limits assumed): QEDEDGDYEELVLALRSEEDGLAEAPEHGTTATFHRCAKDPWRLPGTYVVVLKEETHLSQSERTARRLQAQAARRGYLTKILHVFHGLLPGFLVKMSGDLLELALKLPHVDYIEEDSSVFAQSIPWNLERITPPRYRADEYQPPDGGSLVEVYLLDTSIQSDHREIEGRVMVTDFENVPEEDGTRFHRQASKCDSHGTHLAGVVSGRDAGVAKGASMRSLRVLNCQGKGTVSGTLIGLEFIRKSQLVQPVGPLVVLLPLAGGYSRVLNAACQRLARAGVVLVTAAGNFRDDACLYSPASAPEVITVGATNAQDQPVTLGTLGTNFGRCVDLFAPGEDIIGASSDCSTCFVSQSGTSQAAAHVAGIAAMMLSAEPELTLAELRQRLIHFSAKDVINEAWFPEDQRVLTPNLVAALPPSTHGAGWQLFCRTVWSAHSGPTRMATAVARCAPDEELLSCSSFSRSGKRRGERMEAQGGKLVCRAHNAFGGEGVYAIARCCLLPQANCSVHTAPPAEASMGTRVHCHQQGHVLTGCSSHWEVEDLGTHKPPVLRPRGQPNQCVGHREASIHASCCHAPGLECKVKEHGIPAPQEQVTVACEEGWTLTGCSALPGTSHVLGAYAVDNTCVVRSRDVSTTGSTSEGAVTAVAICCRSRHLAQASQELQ
- EXPERIMENTAL_PROTOCOL: BLI (Octet Red), 37 C
- Method: Tips were then immersed into a buffer-only well for observation of Adnectin dissociation. Experiments were performed in a temperature controlled environment at either 25 or 37° C., and the oscillation speed was set at 1500 rpm. Binding interaction analysis was performed using proprietary software from Fortebio (Fortebio Data Analysis Software version 6.3.0.36). Global fits were performed for all samples, using a 1:1 binding model. […]
QUANTITY_NAME: pKd
Conceptually, pKd converts a concentration in mol/L into minus its log10.

2382H03 (designed binder) MGVSDVPRDLEVVAATPTSLLISWDAPAEGAYGYYRITYGETGGNSPVQEFTVPVSKGTATISGLKPGVDYTITVYAVEYPYPFAGYYHRPISINYRTEIDKPSQHHHHHH	9.17
2451C06 (designed binder) MGVSDVPRDLEVVAATPTSLLISWDAPAGAASYGYYRITYGETGGNSPVQEFTVPVSKGTATISGLKPGVDYTITVYAVEFPFPGAGYYHRPISINYRTEIDKPSQHHHHHH	8.90
2971A03 (designed binder) MGVSDVPRDLEVVAATPTSLLISWDPPSDDYGYYRITYGETGGNSPVQEFTVPIGKGTATISGLKPGVDYTITVYAVEFPWPHAGYYHRPISINYRTEIDKPSQHHHHHH	9.09
2381H09 (designed binder) MGVSDVPRDLEVVAATPTSLLISWDAPAGGGYGYYRITYGETGGNSPVQEFTVPVSKGTATISGLKPGVDYTITVYAVEFDFVGAGYYHRPISINYRTEIDKPSQHHHHHH	8.49
2381D04 (designed binder) MGVSDVPRDLEVVAATPTSLLISWEPFSRLPGGGEYYRITYGETGGNSPLQQFTVPGSKGTATISGLKPGVDYTITVYAVEFPYDHSGYYHRPISINYRTEIDKPSQHHHHHH	9.63

Task: For 2382D03 (designed binder) MGVSDVPRDLEVVAATPTSLLISWDAPADEAYGYYRITYGETGGNSPVQEFTVPVSKGTATISGLKPGVDYTITVYAVEFDFPGAGYYHRPISINYRTEIDKPSQHHHHHH , what is its reported pKd?
Output: 8.82

Task: For 2382C05 (designed binder) MGVSDVPRDLEVVAATPTSLLISWDAPADGAYGYYRITYGETGGNSPVQEFTVPVSKGTATISGLKPGVDYTITVYAVEYSFPGAGYYHRPISINYRTEIDKPSQHHHHHH , what is its reported pKd?
Output: 8.60

Task: For 1459D05 (designed binder, also called ATI000891; ATI-891) MGVSDVPRDLEVVAATPTSLLISWPPPSHGYGYYRITYGETGGNSPVQEFTVPPGKGTATISGLKPGVDYTITVYAVEYPYKHSGYYHRPISINYRTEIDKPSQHHHHHH , what is its reported pKd?
Output: 7.84
